Items are presented alongside their recorded pIC50.
biological target: Acetylcholinesterase (Homo sapiens, UniProt P22303); assay: Inhibition of AChE in human erythrocytes using acetylthiocholineiodide as substrate pre-incubated for 10 mins followed by substrate addition and measured for 6 mins by DTNB reagent based Ellman's method; assay type: cell-based, Erythrocyte
Sequence (P22303 whole entry): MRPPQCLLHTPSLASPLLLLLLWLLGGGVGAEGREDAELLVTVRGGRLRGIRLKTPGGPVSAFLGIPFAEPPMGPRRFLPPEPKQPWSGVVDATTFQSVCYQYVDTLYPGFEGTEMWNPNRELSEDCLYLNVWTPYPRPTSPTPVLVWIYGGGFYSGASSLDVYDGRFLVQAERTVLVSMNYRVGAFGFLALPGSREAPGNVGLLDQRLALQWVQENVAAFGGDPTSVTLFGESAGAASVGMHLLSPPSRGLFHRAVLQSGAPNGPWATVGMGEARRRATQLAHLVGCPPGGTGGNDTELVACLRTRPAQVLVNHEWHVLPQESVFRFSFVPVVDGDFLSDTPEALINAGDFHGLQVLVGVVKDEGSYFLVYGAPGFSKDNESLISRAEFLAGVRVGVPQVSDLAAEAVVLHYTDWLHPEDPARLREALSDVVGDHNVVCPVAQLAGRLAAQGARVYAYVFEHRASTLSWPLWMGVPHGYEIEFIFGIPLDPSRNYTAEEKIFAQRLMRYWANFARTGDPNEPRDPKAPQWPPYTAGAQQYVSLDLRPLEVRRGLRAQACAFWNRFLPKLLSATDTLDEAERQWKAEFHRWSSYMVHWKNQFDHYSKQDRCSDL
pIC50 here: minus log base 10 of the concentration, concentration in moles per litre.

[ask] I would be grateful if you could share the reported pIC50 for `CCOC(=O)c1c(C)nc(N2CCN(S(=O)(=O)c3ccc(NC(C)=O)cc3)CC2)nc1-c1ccc(OC)cc1` .
[reply] 6.88

[ask] Entry to check: `CCOC(=O)c1c(C)nc(N2CCN(S(=O)(=O)c3ccc(N)c(F)c3)CC2)nc1-c1ccc(OC)c(OC)c1`
[reply] 7.18

[ask] Request: `CCOC(=O)c1c(C)nc(N2CCN(S(=O)(=O)c3ccc(NC(C)=O)cc3)CC2)nc1-c1ccccc1`
[reply] 6.93

[ask] Next: `CCOC(=O)c1c(C)nc(N2CCN(S(=O)(=O)c3ccc(NC(C)=O)c(F)c3)CC2)nc1-c1ccccc1`
[reply] 7.01

[ask] Same again, this time with `CCOC(=O)c1c(C)nc(N2CCN(S(=O)(=O)c3ccc(N)cc3)CC2)nc1-c1ccc(OC)c(OC)c1`
[reply] 7.17

[ask] Another molecule to look at: `CCOC(=O)c1c(C)nc(N2CCN(S(=O)(=O)c3ccc(NC(C)=O)c(OC)c3)CC2)nc1-c1ccc(OC)cc1`
[reply] 7.10

[ask] Now consider `CCOC(=O)c1c(C)nc(N2CCN(S(=O)(=O)c3ccc(N)c(OC)c3)CC2)nc1-c1ccc(OC)cc1` and answer again.
[reply] 7.16

[ask] Then what about the molecule `CCOC(=O)c1c(C)nc(N2CCN(S(=O)(=O)c3ccc(NC(C)=O)c(OC)c3)CC2)nc1-c1ccccc1` ?
[reply] 7.10

Here is another molecule to look at.
[ask] GET /values?readout=pIC50&item= `CCOC(=O)c1c(C)nc(N2CCN(S(=O)(=O)c3ccc(NC(C)=O)c(F)c3)CC2)nc1-c1ccc(OC)cc1`
[reply] 7.04

----------
Reported values of IC50 for individual entries
target: Cholinesterase (Homo sapiens, UniProt P06276); assay: Inhibition of BuChE in human serum using butyrylthiocholineiodide as substrate pre-incubated for 10 mins followed by substrate addition and measured for 6 mins by DTNB reagent based Ellman's method; assay type: cell-free
Sequence (P06276 whole entry): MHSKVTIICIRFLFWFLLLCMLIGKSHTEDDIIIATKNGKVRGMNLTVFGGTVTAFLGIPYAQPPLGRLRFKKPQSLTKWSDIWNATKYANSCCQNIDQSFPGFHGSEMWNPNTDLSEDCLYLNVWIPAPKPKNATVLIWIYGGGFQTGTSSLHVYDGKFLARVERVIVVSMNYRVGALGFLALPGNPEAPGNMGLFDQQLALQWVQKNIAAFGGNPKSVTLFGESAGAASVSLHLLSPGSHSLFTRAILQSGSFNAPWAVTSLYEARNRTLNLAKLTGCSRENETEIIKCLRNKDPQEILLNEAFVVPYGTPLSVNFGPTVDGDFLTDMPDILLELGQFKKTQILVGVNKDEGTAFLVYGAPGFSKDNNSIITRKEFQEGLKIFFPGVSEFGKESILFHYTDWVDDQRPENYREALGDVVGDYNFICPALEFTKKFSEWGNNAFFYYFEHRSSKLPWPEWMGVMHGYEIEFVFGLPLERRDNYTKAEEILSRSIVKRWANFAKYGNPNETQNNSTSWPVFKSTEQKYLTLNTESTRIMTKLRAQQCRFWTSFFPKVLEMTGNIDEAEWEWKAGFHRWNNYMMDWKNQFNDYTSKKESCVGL
The answer is to be given in nM; state only the numeric part.

Solved cases (2 shown):
[ask] For the molecule shown here, `CCOC(=O)c1c(C)nc(N2CCN(S(=O)(=O)c3ccc(NC(C)=O)c(Cl)c3)CC2)nc1-c1ccc(OC)c(OC)c1` , give the reported IC50.
[reply] 159

[ask] Also `CCOC(=O)c1c(C)nc(N2CCN(S(=O)(=O)c3ccc(N)c(Cl)c3)CC2)nc1-c1ccc(OC)c(OC)c1` , if possible.
[reply] 153

Shifting focus to the molecule that follows.
[ask] Which IC50 reading was recorded for the molecule `CCOC(=O)c1c(C)nc(N2CCN(S(=O)(=O)c3ccc(N)c(OC)c3)CC2)nc1-c1ccc(OC)cc1` ?
[reply] 187

----------
biological target: Acetylcholinesterase (Homo sapiens, UniProt P22303); experiment: Inhibition of AChE in human erythrocytes using acetylthiocholineiodide as substrate pre-incubated for 10 mins followed by substrate addition and measured for 6 mins by DTNB reagent based Ellman's method; format: cell-based, Erythrocyte
assayMetric: pIC50
The read-out pIC50 is expressed as -log10 of concentration in moles per litre.

These recorded examples may help you get a feel for the data.
[ask] Provide value of pIC50 for this record tested with Acetylcholinesterase (Homo sapiens, UniProt P22303): `CCOC(=O)c1c(C)nc(N2CCN(S(=O)(=O)c3ccc(N)c(OC)c3)CC2)nc1-c1ccc(OC)c(OC)c1`
[reply] 7.07

[ask] Another: `CCOC(=O)c1c(C)nc(N2CCN(S(=O)(=O)c3ccc(N)c(Cl)c3)CC2)nc1-c1ccccc1`
[reply] 7.10

Continuing:
[ask] Give the reported pIC50 for `CCOC(=O)c1c(C)nc(N2CCN(S(=O)(=O)c3ccc(NC(C)=O)c(Cl)c3)CC2)nc1-c1ccc(OC)c(OC)c1` (system: Acetylcholinesterase (Homo sapiens, UniProt P22303)).
[reply] 7.32

[ask] What do you get for `CCOC(=O)c1c(C)nc(N2CCN(S(=O)(=O)c3ccc(NC(C)=O)cc3)CC2)nc1-c1ccc(OC)c(OC)c1` ?
[reply] 7.05

[ask] Then this compound: `CCOC(=O)c1c(C)nc(N2CCN(S(=O)(=O)c3ccc(NC(C)=O)c(Cl)c3)CC2)nc1-c1ccccc1`
[reply] 6.84

[ask] Another compound to check: `CCOC(=O)c1c(C)nc(N2CCN(S(=O)(=O)c3ccc(N)c(Cl)c3)CC2)nc1-c1ccc(OC)cc1`
[reply] 7.11
